# Tested on: THP-1
# experiment: THP1 cytotoxicity
# Type: cell-based
# test context: read-out: THP-1 Cytotox IC50
measurement type: IC50

compound="Cn1cc2cc(-c3cc4[nH]nc(C5CC5)c4n(-c4ccc(OC(F)F)cc4)c3=O)ccc2n1 [AZ’9567]" value_reported="> 50 µM"

====

# tested system: 5-HT4 receptor (Homo sapiens)
# Sequence (Q13639 whole entry): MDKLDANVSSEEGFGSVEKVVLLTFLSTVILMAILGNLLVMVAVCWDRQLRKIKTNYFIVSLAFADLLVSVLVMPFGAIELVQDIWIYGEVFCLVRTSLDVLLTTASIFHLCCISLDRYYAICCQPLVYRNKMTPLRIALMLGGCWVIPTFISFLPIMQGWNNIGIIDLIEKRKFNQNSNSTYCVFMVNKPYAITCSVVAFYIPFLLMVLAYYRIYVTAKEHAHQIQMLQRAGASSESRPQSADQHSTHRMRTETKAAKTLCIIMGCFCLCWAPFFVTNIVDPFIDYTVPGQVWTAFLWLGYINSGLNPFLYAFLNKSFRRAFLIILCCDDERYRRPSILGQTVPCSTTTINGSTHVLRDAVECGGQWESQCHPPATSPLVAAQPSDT
measurement type: Ki

query_smiles=Cn1cc2cc(-c3cc4[nH]nc(C5CC5)c4n(-c4ccc(OC(F)F)cc4)c3=O)ccc2n1 value_reported="10.3 µM"

====

# tested system: Phosphodiesterase PDE10A2 (Homo sapiens)
# Sequence (Q9Y233 267-1055 limits assumed): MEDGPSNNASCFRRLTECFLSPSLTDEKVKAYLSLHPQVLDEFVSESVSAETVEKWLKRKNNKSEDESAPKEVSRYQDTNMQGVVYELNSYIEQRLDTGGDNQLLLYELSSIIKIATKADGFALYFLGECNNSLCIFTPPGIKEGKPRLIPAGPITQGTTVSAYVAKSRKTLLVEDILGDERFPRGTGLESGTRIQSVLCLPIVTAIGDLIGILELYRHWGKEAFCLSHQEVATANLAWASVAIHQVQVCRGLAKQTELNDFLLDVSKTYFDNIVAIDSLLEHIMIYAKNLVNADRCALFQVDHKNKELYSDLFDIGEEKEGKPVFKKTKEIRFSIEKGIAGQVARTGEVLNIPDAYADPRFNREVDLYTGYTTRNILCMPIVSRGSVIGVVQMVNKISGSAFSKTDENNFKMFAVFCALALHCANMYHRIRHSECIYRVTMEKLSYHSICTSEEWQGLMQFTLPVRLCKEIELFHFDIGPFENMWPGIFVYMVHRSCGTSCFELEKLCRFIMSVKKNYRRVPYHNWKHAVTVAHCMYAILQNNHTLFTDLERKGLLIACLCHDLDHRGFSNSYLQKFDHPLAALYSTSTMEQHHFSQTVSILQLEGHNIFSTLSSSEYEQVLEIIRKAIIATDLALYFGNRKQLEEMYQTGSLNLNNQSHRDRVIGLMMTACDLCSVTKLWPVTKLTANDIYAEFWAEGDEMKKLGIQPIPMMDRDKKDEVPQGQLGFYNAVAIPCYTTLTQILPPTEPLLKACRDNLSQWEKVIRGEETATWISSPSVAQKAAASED
pIC50: −log10 of the molar value.
measurement type: pIC50

query_smiles=Cn1cc2cc(-c3cc4[nH]nc(C5CC5)c4n(-c4ccc(OC(F)F)cc4)c3=O)ccc2n1 tested_system="Phosphodiesterase PDE10A2 (Homo sapiens)" value_reported=4.97

====

# tested system: IKs (Homo sapiens, UniProt P51787)
# Sequence (P51787 whole entry): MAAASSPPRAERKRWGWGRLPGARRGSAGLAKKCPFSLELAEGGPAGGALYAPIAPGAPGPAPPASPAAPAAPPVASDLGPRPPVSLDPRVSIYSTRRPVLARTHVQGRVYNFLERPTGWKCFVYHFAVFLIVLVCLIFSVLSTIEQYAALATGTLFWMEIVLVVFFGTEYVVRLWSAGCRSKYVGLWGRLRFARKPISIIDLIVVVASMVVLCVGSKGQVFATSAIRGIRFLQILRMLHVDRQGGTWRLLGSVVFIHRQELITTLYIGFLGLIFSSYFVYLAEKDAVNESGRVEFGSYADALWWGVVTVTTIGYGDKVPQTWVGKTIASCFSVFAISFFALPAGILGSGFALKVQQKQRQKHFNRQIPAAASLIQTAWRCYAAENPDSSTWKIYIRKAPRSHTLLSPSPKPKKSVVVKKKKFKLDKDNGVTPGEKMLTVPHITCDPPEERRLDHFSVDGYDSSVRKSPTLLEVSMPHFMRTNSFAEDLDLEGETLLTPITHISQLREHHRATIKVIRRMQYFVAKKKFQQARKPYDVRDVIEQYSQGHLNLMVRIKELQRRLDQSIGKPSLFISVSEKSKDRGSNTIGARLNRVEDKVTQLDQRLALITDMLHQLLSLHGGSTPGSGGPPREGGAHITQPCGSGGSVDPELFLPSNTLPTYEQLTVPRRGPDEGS
# experiment: Cardiac ion channel panel
# test context: Full curve
measurement type: IC50

compound="Cn1cc2cc(-c3cc4[nH]nc(C5CC5)c4n(-c4ccc(OC(F)F)cc4)c3=O)ccc2n1 [AZ’9567]" value_reported="> 33.3 µM"

====

# tested system: A1 adenosine receptor (Homo sapiens)
# Sequence (P30542 1-326): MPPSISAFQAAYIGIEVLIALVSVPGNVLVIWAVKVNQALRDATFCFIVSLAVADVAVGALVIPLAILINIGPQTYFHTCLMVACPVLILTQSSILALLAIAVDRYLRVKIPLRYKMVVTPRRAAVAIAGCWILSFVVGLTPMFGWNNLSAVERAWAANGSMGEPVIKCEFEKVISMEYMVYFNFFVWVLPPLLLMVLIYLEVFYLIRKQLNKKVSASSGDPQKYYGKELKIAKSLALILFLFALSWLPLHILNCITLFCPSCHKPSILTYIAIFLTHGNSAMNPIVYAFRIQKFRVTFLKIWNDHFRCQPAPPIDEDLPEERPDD
measurement type: Ki

molecule="Cn1cc2cc(-c3cc4[nH]nc(C5CC5)c4n(-c4ccc(OC(F)F)cc4)c3=O)ccc2n1 [AZ’9567]" value_reported="2600 nM"

====

# tested system: UniProt:P08172
# Sequence (P08172 whole entry): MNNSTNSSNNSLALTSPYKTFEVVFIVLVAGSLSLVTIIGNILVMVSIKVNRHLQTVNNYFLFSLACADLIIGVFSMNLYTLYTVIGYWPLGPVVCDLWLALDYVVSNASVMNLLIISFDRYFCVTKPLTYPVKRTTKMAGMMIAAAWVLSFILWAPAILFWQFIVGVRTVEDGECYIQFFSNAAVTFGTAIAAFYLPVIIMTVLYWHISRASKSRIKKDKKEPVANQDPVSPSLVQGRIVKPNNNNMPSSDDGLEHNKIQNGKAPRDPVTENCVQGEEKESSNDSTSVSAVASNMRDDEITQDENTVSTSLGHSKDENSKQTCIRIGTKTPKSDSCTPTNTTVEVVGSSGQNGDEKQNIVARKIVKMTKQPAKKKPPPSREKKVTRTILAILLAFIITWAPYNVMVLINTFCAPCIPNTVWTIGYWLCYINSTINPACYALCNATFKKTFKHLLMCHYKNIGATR
measurement type: Ki (nM)

compound="Cn1cc2cc(-c3cc4[nH]nc(C5CC5)c4n(-c4ccc(OC(F)F)cc4)c3=O)ccc2n1 [AZ’9567]" measure_unit=nM value_reported=1800

====

# tested system: α1A adrenoceptor (Homo sapiens, UniProt P35348)
# Construct: Eurofins
# Sequence (P35348 whole entry): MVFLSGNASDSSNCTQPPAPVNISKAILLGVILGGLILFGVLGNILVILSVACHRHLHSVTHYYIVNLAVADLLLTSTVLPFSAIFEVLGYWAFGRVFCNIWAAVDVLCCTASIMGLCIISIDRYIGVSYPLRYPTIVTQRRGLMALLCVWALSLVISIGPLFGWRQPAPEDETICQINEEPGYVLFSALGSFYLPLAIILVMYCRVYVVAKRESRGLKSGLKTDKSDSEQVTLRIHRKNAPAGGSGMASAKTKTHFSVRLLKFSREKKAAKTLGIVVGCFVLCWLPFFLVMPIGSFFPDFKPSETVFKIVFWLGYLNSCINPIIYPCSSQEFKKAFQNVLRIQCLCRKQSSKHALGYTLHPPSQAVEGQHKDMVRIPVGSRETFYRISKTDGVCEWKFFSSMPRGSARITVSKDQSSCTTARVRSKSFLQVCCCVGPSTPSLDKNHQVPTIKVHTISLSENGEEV
# experiment: Radioligand binding assay
measurement type: Ki (µM)

compound="Cn1cc2cc(-c3cc4[nH]nc(C5CC5)c4n(-c4ccc(OC(F)F)cc4)c3=O)ccc2n1 [AZ’9567]" tested_system="α1A adrenoceptor (Homo sapiens, UniProt P35348)" measurement_type=Ki value_reported=12.7

====

# tested system: Aurora A kinase (Homo sapiens, UniProt O14965)
# Sequence (O14965 1-403): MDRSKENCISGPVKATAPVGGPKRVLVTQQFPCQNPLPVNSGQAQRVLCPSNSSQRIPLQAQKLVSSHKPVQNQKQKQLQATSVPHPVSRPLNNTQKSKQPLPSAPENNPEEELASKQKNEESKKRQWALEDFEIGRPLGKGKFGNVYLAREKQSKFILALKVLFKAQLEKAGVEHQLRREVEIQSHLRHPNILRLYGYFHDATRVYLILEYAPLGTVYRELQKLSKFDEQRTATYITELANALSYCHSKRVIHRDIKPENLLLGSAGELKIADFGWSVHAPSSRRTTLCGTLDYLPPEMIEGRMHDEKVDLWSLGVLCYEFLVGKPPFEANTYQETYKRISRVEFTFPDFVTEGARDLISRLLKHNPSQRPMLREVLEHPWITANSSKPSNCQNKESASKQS
pIC50: −log10 of the molar value.
measurement type: pIC50

molecule="Cn1cc2cc(-c3cc4[nH]nc(C5CC5)c4n(-c4ccc(OC(F)F)cc4)c3=O)ccc2n1 [AZ’9567]" tested_system="Aurora A kinase (Homo sapiens, UniProt O14965)" value_reported=4.08
